# target_entity: rat brain bradykinin receptors
# assay_overview: Radioligand competition binding against [3H]DALKD in rat brain membranes
# particulars: Table 1; [3H]DALKD, brain bradykinin receptors, pH 7.4; read-out: IC50 (nM) at pH 7.4, n ≥ 2
# reported IC50; entries follow
Please give a number only; it is taken to be in nM.

GFLRIRPKLK [LYS1042, Gly-Phe-Leu-Arg-Ile-Arg-Pro-Lys-Leu-Lys]    41
IRPKLK [LYS1039, Ile-Arg-Pro-Lys-Leu-Lys]    81
PKLK [LYS1038, Pro-Lys-Leu-Lys]    120
FLRRIRPK [LYS1026, Phe-Leu-Arg-Arg-Ile-Arg-Pro-Lys]    140

Would you kindly look at the next entry?
IC50 reading for LRIRPKLK [LYS1040, Leu-Arg-Ile-Arg-Pro-Lys-Leu-Lys] : 68
